# method: soluble on expression in E. coli; label from the status in PepcDB or PDB records
endpoint label: soluble on expression in E. coli

GAHMVTSNVVLVSGEGERFTVDKKIAERSLLLKNYLNDMGDDDDEDDDEIVMPVPNVRSSVLQKVIEWAEHHRDSNFPDEDDDDSRKSAPVDSWDREFLKVDQEMLYEIILAANYLNIKPLLDAGCKVVAEMIRGRSPEEIRRTFNIVNDFTPEEEAAIRRENEWAEDR | soluble
MSLSLVIAAGTILGACGNSEKSSGSGEGKNKFSVAMVTDVGGVDDKSFNQSAWEGIQAFGKENGLKKGKNGYDYLQSKSDADYTTNLNKLARENFDLIYGVGYLMEDSISEIADQRKNTNFAIIDAVVDKDNVASITFKEQEGSFLVGVAAALSSKSGKIGFVGGMESELIKKFEVGFRAGVQAVNPKAVVEVKYAGGFDKADVGKATAESMYKSGVDVIYHSAGATGTGVFTEAKNLKKEDPKRDVWVIGVDKDQYAEGQVEGTDDNVTLTSMVKKVDTVVEDVTKKASDGKFPGGETLTYGLDQDGVGISPSKQNLSDDVIKAVDKWKKKIIDGLEIPATEKELKTFKAEEGGSHHHHHH | soluble

###

# method: soluble on expression in E. coli; label from the status in PepcDB or PDB records
endpoint label: soluble on expression in E. coli

GSMQRASRLKRELHMLATEPPPGITCWQDKDQMDDLRAQILGGANTPYEKGVFKLEVIIPERYPFEPPQIRFLTPIYHPNIDSAGRICLDVLKLPPKGAWRPSLNIATVLTSIQLLMSEPNPDDPLMADISSEFKYNKPAFLKNARQWTEKHARQKQKADEEEMLDNLP | soluble
MSLIIAIQGGMAVGKTTALKIIEKVYPKIAISFEDISPVVDKINKHQLDNNKLDDYCEIQQLFIQHERDRYELVRDNEIVLMDYGAEEIAFYTQYFPKVAGYSWTLPSNLLLEVNRLKECFADYIIFLDADKTVLYQRQKNDFNRRRHFFKWYTHHLLPAKKHYLDTFSNVIHINTNHLNAEEVAEKIIDIIRKLTEGHHHHHH | soluble
MSVKIDVIRVEIPEGTNVIIGQSHFIKTVEDLYETLASSSPHLKFGIAFCEASGKRLIRWDGNDEELIKLAQQTALKIGAGHTFVIYIKNGFPINVLNRIKNVEEVVRIFAATANPLQVLVAETDQGRGVIGVVDGYTPLGIETEADIKERKELLRKFGYKR | soluble

###

# method: soluble on expression in E. coli; label from the status in PepcDB or PDB records
endpoint label: soluble on expression in E. coli

MGSDKIHHHHHHMAIYEARGFSSYLYPYKGPLEPFDYIAQFRPLKPPEDIDIEEYKRTQAPYCLSGKVTAEKNGSYKRNNASLVYRDLIFLDYDEIETGVNLPKIVSQTLWEYSYIIYPTIKHTPEKPRYRLVMKPSDVMTEATYKQVVKEIADKIGLPFDLASLTWSQLQGLPVTTGDPEDYQRYVNHGLDYPVPKNGSTPNRQVVTTYTPRPRSQRSITMRVIDTLFNGFGNEGGRNVALTKFVGLLFNKWVDCDLETAYELVQIANSVTTKPLPIDEIDRTFTSIAKAEYRKRG | not soluble
MGSDKIHHHHHHMSSNTFTLGTKSVNRLGYGAMQLAGPGVFGPPRDRHVAITVLREALALGVNHIDTSDFYGPHVTNQIIREALYPYSDDLTIVTKIGARRGEDASWLPAFSPAELQKAVHDNLRNLGLDVLDVVNLRVMMGDGHGPAEGSIEASLTVLAEMQQQGLVKHIGLSNVTPTQVAEARKIAEIVCVQNEYNIAHRADDAMIDALAHDGIAYVPFFPLGGFTPLQSSTLSDVAASLGATPMQVALAWLLQRSPNILLIPGTSSVAHLRENMAAEKLHLSEEVLSTLDGISRE | not soluble
